- System: human mammary gland tumour cell line MCF-7
- methodNotes: CCK-8 antiproliferative assay, MCF-7
- Assay type: cell-based
- conditionsUsed: Homo sapiens, MCF7; CCK-8, 48 h, mean ± SD of three experiments; read-out: IC50 MCF-7
attributeMeasured: IC50 (µM)
One number for each entry, in µM.

State the recorded IC50 for this entry: COc1cccc2c1C(=O)c1c(O)c3c(c(O)c1C2=O)C[C@@](O)(C(=O)CO)C[C@@H]3O[C@H]1C[C@H](N)[C@H](O)[C@H](C)O1 [Adriamycin, adriamycin, reference compound]
5.12

----------
For each record, write down the corresponding IC50.
- System: human normal breast cell line MCF10A
- methodNotes: CCK-8 assay, normal cells MCF10A
- Type: cell-based
- conditionsUsed: MCF-10A, CCK-8, 48 h, mean ± SD of three experiments

- molecule: "COC1=CC2[C@H]3Cc4ccc(OC)c(OC(=O)CCCC(=O)OCCOc5no[n+]([O-])c5S(=O)(=O)c5ccccc5)c4[C@@]2(CCN3C)CC1=O (some centres unmarked)"
  IC50: "> 50 µM"
- molecule: "COC1=CC2[C@H]3Cc4ccc(OC)c(OC(=O)CCCC(=O)OCCCCCCOc5no[n+]([O-])c5S(=O)(=O)c5ccccc5)c4[C@@]2(CCN3C)CC1=O (some centres unmarked)"
  IC50: "> 50 µM"
- molecule: "COC1=CC2[C@H]3Cc4ccc(OC)c(OC(=O)CCCC(=O)OCCCCOc5no[n+]([O-])c5S(=O)(=O)c5ccccc5)c4[C@@]2(CCN3C)CC1=O (some centres unmarked)"
  IC50: "36.7 µM"

Please state IC50 for every molecule in the list that follows.
1. COC1=CC2[C@H]3Cc4ccc(OC)c(OC(=O)c5ccccc5C(=O)OCCCCOc5no[n+]([O-])c5S(=O)(=O)c5ccccc5)c4[C@@]2(CCN3C)CC1=O (some centres unmarked)
2. COC1=CC2[C@H]3Cc4ccc(OC)c(OC(=O)c5ccccc5C(=O)OCCOc5no[n+]([O-])c5S(=O)(=O)c5ccccc5)c4[C@@]2(CCN3C)CC1=O (some centres unmarked)
3. COC1=CC2[C@H]3Cc4ccc(OC)c(OC(=O)c5ccccc5C(=O)OCCCCCOc5no[n+]([O-])c5S(=O)(=O)c5ccccc5)c4[C@@]2(CCN3C)CC1=O (some centres unmarked)
4. COC1=CC2[C@H]3Cc4ccc(OC)c(OC(=O)CCCC(=O)OCCCOc5no[n+]([O-])c5S(=O)(=O)c5ccccc5)c4[C@@]2(CCN3C)CC1=O (some centres unmarked)

1: 27.5 µM; 2: 21.5 µM; 3: 19.9 µM; 4: > 50 µM

Please state IC50 for every molecule in the list that follows.
1. COC1=CC2[C@H]3Cc4ccc(OC)c(OC(=O)CCC(=O)OCCCCCCOc5no[n+]([O-])c5S(=O)(=O)c5ccccc5)c4[C@@]2(CCN3C)CC1=O (some centres unmarked)
2. COC1=CC2[C@H]3Cc4ccc(OC)c(OC(=O)c5ccccc5C(=O)OCCCCCCOc5no[n+]([O-])c5S(=O)(=O)c5ccccc5)c4[C@@]2(CCN3C)CC1=O (some centres unmarked)
3. COC1=CC2[C@H]3Cc4ccc(OC)c(OC(=O)CCC(=O)OCCCCOc5no[n+]([O-])c5S(=O)(=O)c5ccccc5)c4[C@@]2(CCN3C)CC1=O (some centres unmarked)
4. COC1=CC2[C@H]3Cc4ccc(OC)c(OC(=O)CCCC(=O)OCCCCCOc5no[n+]([O-])c5S(=O)(=O)c5ccccc5)c4[C@@]2(CCN3C)CC1=O (some centres unmarked)
5. COC1=CC2[C@H]3Cc4ccc(OC)c(OC(=O)CCC(=O)OCCOc5no[n+]([O-])c5S(=O)(=O)c5ccccc5)c4[C@@]2(CCN3C)CC1=O (some centres unmarked)
6. COC1=CC2[C@H]3Cc4ccc(OC)c(OC(=O)c5ccccc5C(=O)OCCCOc5no[n+]([O-])c5S(=O)(=O)c5ccccc5)c4[C@@]2(CCN3C)CC1=O (some centres unmarked)
7. COC1=CC2[C@H]3Cc4ccc(OC)c(OC(=O)CCC(=O)OCCCCCOc5no[n+]([O-])c5S(=O)(=O)c5ccccc5)c4[C@@]2(CCN3C)CC1=O (some centres unmarked)

43.6 µM
48.3 µM
40.7 µM
39.5 µM
> 50 µM
> 50 µM
24.7 µM
